Listing of recorded EC50 by entry.
Target: human mGluR2 receptor (Homo sapiens, UniProt Q14416)
Construct: expressed in transfected cells; host or cells: CHO cells (membrane preparation)
Sequence (Q14416 19-872): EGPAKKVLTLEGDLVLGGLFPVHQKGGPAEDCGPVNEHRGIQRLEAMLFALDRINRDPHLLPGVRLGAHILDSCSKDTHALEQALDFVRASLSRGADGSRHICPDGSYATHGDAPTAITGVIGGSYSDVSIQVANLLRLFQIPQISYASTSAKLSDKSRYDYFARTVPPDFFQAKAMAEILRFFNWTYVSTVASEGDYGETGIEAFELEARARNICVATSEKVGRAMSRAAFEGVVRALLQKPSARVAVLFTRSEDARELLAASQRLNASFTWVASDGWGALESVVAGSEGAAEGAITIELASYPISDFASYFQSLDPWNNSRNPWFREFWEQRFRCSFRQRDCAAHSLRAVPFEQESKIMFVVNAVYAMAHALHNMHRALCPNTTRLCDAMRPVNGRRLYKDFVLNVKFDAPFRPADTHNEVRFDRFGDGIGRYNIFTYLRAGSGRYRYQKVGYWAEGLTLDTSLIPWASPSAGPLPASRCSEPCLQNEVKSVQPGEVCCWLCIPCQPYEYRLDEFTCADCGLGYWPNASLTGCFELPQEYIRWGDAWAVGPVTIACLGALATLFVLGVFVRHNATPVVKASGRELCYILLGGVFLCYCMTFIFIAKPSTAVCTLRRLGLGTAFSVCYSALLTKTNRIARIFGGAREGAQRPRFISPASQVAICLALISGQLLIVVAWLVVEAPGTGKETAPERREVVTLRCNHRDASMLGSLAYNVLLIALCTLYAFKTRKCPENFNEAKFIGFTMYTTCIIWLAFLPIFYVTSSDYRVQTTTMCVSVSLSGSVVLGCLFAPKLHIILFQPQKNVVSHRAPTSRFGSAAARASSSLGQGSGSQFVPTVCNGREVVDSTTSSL
Assay: [35S]GTPγS binding assay, mGluR2 positive allosteric modulation (GTPγS-PAM)
Type: biochemical
Conditions: membranes from CHO cells transfected with human mGluR2; in presence of glutamate at EC25 concentration; averages of duplicate values of 11-concentration response curves; read-out: GTPgS - hR2 PAM pEC50 (converted)

Please review the entries below; each comes with its answer.
# smiles text, EC50
records = [
    ("N#Cc1c(-c2ccc(NC3CCOCC3)c(C(F)(F)F)c2)ccn(CCC2CC2)c1=O", "437 nM"),
    ("N#Cc1c(-c2ccc(NC3CCOCC3)c(Cl)c2)ccn(CCC2CC2)c1=O", "219 nM"),
    ("CC(C)CCn1ccc(-c2ccc(NC3CCOCC3)cc2F)c(C#N)c1=O", "1580 nM"),
    ("CCCCn1ccc(-c2ccc(NC3CCOCC3)cc2)c(C#N)c1=O", "2510 nM"),
]

Lab note: next compound to report on.
Value of measured EC50 for the entry CC(C)CCn1ccc(-c2ccc(OC3CCOCC3)c(Cl)c2)c(C#N)c1=O : 162 nM

* * *

Biological target: human mGluR2 receptor (Homo sapiens, UniProt Q14416)
Construct: expressed in transfected cells; host or cells: CHO cells (membrane preparation)
Assay: [35S]GTPγS binding assay, mGluR2 positive allosteric modulation (GTPγS-PAM)
Assay type: biochemical
Settings: membranes from CHO cells transfected with human mGluR2; in presence of glutamate at EC25 concentration; averages of duplicate values of 11-concentration response curves; read-out: GTPgS - hR2 PAM pEC50 (converted)
I'd appreciate it if you marked entries True when EC50 is lower than 0.4 µM and False when it is not.

Check out these entries, answers already filled in.
# smiles text, label class
records = [
    ("N#Cc1c(-c2ccc(NC3CCOCC3)c(Cl)c2)ccn(CC2CC2)c1=O", "False"),
    ("CC(C)CCn1ccc(-c2ccc(NC3CCOCC3)c(Cl)c2)c(C#N)c1=O", "True"),
    ("N#Cc1c(-c2ccc(OC3CCOCC3)c(Cl)c2)ccn(CCC2CC2)c1=O", "True"),
    ("N#Cc1c(-c2ccc(NC3CCOCC3)c(C(F)(F)F)c2)ccn(CC2CC2)c1=O", "False"),
]

**Q:** API: query returns whether the compound falls strictly under 0.4 µM in EC50. Query: CCCCn1ccc(-c2ccc(OC3CCOCC3)cc2F)c(C#N)c1=O
**A:** False

* * *

Listing of recorded melting point by entry.
All answers are understood in °C, so give the number only.

# compound, units label, melting point
rows = [
    ("CCCCn1ccc(-c2ccc(OC3CCOCC3)cc2F)c(C#N)c1=O [Compound 9]", "°C", 136),
    ("CCCCn1ccc(-c2ccc(NC3CCOCC3)cc2)c(C#N)c1=O [Compound 8]", "°C", 195),
]

Value of measured melting point for the entry N#Cc1c(-c2ccc(NC3CCOCC3)c(F)c2)ccn(CC2CC2)c1=O [Compound 1] : 249.5

Cited source for all entries: patent US8906939B2
